Cited source: patent US20260124214A1

Molecular target: Human Polθ polymerase domain (aa1820-2590) (Homo sapiens, UniProt O75417)
Sequence (O75417 1820-2590): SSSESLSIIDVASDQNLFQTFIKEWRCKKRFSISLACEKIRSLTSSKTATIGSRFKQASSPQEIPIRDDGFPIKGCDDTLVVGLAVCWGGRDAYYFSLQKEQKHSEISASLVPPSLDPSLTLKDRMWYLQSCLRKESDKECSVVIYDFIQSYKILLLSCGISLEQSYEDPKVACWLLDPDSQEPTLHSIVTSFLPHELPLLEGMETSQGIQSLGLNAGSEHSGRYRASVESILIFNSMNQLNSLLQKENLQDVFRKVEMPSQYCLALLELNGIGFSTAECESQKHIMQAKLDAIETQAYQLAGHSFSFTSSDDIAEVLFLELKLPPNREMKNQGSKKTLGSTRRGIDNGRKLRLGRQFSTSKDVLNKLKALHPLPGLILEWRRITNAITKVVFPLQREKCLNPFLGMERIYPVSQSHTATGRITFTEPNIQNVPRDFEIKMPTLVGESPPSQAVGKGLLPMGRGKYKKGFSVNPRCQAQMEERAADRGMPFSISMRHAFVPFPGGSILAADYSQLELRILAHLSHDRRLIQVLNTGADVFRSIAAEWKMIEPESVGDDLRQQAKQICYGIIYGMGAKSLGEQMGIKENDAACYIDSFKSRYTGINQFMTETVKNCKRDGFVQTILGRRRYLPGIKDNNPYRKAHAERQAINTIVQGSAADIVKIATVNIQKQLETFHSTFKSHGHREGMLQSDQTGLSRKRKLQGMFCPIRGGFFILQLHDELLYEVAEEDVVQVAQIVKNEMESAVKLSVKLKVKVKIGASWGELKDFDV
Counter-ions that a name gives are not always drawn.
Recorded endpoint: pKi
Remember the convention: pKi equals -log10 of concentration in molar.

Guide cases for pKi, answers given:
Compound	pKi
Cc1cc(C(F)(F)F)cc(N2C(=O)C[C@@H]3CN(CCN4CCN(CCF)CC4)c4c(Cl)cccc4N(C)C(=O)[C@H]32)n1 [Example 26]	8.57
Cc1cc(C(F)(F)F)cc(N2C(=O)C[C@@H]3CN(C[C@@H]4CNCCO4)c4c(Cl)cccc4N(C)C(=O)[C@H]32)n1 (racemic) [Example 109b]	8.69
Cc1cc(C(F)(F)F)cc(N2C(=O)C[C@@H]3CN(C[C@H]4CCN(C)[C@H](C)C4)c4c(Cl)cccc4N(C)C(=O)[C@H]32)n1 (single isomer, unassigned) [Example 126c]	9.05
Cc1cc(C(F)(F)F)cc(N2C(=O)C[C@@H]3CN(CCN4CCN(C)C[C@H]4C)c4c(C)cccc4N(C)C(=O)[C@H]32)n1 [Example 48, dihydrochloride]	9.51
Cc1cc(C(F)(F)F)cc(N2C(=O)C[C@@H]3CN(Cc4cccc(C5CN(C)C5)c4)c4c(F)cccc4N(C)C(=O)[C@H]32)n1 [Example 124]	8.37
Cc1cc(C(F)(F)F)cc(N2C(=O)C[C@@H]3CN(CCCN(C)C)c4c(Cl)cccc4N(C)C(=O)[C@H]32)n1 [Example 135]	8.46

Alright, here's another compound for you.
Give recorded pKi with Human Polθ polymerase domain (aa1820-2590) (Homo sapiens, UniProt O75417) for the following compound: Cc1cc(C(F)(F)F)cc(N2C(=O)C[C@@H]3CN(CC4CCN(C)CC4)c4c(Cl)cccc4N(C)C(=O)[C@H]32)n1 [Example 84]
8.60
